molecular target: wild-type LRRK2 (Homo sapiens); construct: DNA tag for qPCR detection (not a peptide; the protein part that carries it is not described); made in house; host or cells: HEK 293 cells (the same paragraph also describes T7 phage grown in E. coli BL21); test: Inhibitory activity against LRRK2: competition binding to ligand-affinity beads, DNA-tagged kinase quantitated by qPCR; conditions: 50 nM compound; % of ctrl; read-out: LRRK2(WT) Remaining kinase activity(%) at 50 nM
Sequence (Q5S007 970-2527): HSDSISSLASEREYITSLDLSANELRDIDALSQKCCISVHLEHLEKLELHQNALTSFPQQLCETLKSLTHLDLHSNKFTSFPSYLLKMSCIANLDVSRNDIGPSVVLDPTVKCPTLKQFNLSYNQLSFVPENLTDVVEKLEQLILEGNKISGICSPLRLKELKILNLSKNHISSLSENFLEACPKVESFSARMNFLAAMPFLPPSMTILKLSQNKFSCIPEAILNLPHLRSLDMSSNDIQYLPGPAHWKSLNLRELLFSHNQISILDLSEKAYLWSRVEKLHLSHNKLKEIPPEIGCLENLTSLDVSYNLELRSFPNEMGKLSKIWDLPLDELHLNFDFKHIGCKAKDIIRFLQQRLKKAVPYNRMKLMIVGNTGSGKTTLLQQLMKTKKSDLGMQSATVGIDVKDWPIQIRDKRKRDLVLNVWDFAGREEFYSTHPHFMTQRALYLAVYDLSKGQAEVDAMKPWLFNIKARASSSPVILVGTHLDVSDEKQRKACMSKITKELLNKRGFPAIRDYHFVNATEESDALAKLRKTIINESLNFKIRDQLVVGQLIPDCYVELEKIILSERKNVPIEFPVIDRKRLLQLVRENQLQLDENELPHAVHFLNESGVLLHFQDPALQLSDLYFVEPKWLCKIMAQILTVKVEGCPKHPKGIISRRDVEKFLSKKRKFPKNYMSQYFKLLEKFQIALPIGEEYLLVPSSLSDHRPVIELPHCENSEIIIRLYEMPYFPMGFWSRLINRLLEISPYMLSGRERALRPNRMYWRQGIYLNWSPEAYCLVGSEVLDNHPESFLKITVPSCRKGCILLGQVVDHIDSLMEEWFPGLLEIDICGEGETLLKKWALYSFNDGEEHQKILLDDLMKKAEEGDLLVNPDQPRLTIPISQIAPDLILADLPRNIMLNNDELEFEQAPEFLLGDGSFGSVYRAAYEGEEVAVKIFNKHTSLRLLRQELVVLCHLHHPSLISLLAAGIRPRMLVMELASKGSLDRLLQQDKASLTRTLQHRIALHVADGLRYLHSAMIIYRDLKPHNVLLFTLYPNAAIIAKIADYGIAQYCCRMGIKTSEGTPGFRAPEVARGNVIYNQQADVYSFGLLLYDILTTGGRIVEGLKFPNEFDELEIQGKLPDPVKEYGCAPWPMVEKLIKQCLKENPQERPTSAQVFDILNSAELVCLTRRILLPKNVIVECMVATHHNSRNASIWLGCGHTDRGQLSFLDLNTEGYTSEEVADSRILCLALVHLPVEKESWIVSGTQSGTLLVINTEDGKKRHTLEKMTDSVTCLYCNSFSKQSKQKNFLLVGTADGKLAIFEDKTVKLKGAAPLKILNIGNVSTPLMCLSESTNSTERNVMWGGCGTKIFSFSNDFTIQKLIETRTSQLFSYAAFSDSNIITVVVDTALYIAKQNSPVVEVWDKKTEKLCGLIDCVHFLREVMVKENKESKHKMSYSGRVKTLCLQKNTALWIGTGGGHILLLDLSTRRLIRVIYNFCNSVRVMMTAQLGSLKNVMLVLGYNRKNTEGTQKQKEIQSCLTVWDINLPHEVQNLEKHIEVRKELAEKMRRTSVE
Recorded remaining binding at 0.05 µM values for a group of molecules are listed next.

molecule: COc1cc(C(=O)NC(C)c2ccccc2)ccc1Nc1ncc(Cl)c(-c2cnn(C(C)C)c2)n1 (stereo not shown) [Compound 179]
remaining binding at 0.05 µM: < 50%
--
molecule: COc1cc(C(=O)NC2Cc3ccccc3C2)ccc1Nc1ncc(Cl)c(-c2cnn(C(C)C)c2)n1 [Compound 129]
remaining binding at 0.05 µM: < 50%
--
molecule: COc1cc(C(=O)NC2CCN(C(C)C)CC2)ccc1Nc1ncc(Cl)c(-c2cnn(C(C)C)c2)n1 [Compound 99]
remaining binding at 0.05 µM: < 30%
--
molecule: COc1cc(C(=O)N2CCC(S(C)(=O)=O)CC2)ccc1Nc1ncc(Cl)c(-c2cnn(C(C)C)c2)n1 [Compound 79]
remaining binding at 0.05 µM: < 10%
--
molecule: COc1cc(C(=O)NCc2ccc(N)cc2)ccc1Nc1ncc(Cl)c(-c2cnn(C(C)C)c2)n1 [Compound 183]
remaining binding at 0.05 µM: < 30%
--
molecule: COc1cc(C(=O)N2CC3(COC3)C2)ccc1Nc1ncc(Cl)c(-c2cnn(C(C)C)c2)n1 [Compound 90]
remaining binding at 0.05 µM: < 30%
--
molecule: COc1cc(C(=S)N2CCN(C)CC2)c(F)cc1Nc1ncc(Cl)c(-c2cnn(C(C)C)c2)n1 [Compound 102]
remaining binding at 0.05 µM: < 10%

---

biological target: mutant LRRK2 (G2019S) (Homo sapiens, UniProt Q5S007, G2019S); construct: DNA tag for qPCR detection (not a peptide; the protein part that carries it is not described); made in house; host or cells: HEK 293 cells (the same paragraph also describes T7 phage grown in E. coli BL21); test: Inhibitory activity against LRRK2: competition binding to ligand-affinity beads, DNA-tagged kinase quantitated by qPCR; conditions: 100 nM compound; % of ctrl; read-out: Remaining kinase activity(%) at 100 nM LRRK2(G2019Smutant)
Sequence (Q5S007 970-2527 G2019S): as the sequence (Q5S007 970-2527) above, with G1050S counted along it
assay-readout: remaining binding at 0.1 µM

smiles-code: COc1cc(C(=O)N2CCOCC2)ccc1Nc1ncc(Cl)c(-c2cnn(C(F)F)c2)n1
value-measured: < 30%

smiles-code: COc1cc(C(=O)N2CCC(N3CCOCC3)CC2)ccc1Nc1ncc(Cl)c(-c2cnn(C)c2)n1
value-measured: < 10%

smiles-code: COc1cc(C(=O)N2CCOCC2)ccc1Nc1ncc(Cl)c(-c2cnn(C(C)(C)C)c2)n1
value-measured: < 10%

smiles-code: COCCN(C)C(=O)c1ccc(Nc2ncc(Cl)c(-c3cnn(C)c3)n2)c(OC)c1
value-measured: < 30%

smiles-code: COc1cc(C(=O)N2CCOCC2)ccc1Nc1ncc(Cl)c(-c2cnn(C3CC3)c2)n1
value-measured: < 10%

smiles-code: COc1cc(C(=O)N2C[C@H]3CC[C@@H](C2)O3)ccc1Nc1ncc(Cl)c(-c2cnn(C)c2)n1
value-measured: < 30%

smiles-code: COc1cc(C(=O)N2CC3(CCO3)C2)ccc1Nc1ncc(Cl)c(-c2cnn(C)c2)n1
value-measured: < 50%

smiles-code: COc1cc(C(=O)N2CCOCC2)ccc1Nc1ncc(Cl)c(-c2cnn(CCC#N)c2)n1
value-measured: < 10%
